# assay_notes: protein stability index of a GFP-peptide fusion (GPS, HEK-293T) (PSI 1-6); higher = more stable;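 further: 24-mer peptide tiles fused after GFP, lentivirally expressed, FACS-sorted into six equal bins by GFP/DsRed ratio, decoded by Illumina sequencing, PSI is the read-weighted mean bin number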
# experimental_conditions: treatment: DMSO; c terminus: a fixed tail appended
Here the recorded protein stability index is given for each entry.
Answer using only a numeral; do not append any unit.

Below are worked cases with known answers.
> print(dat)
                    sequence.content  readout.number
1    TRNGEVVTESQKEQRSELDKSSAH [PRPH]            5.06
2    QKSVTRSCLLEEEEESGEEAAEAM [POP5]            5.37
3  TEHMKTHTGLKPYECGVCAKKFMW [ZBTB22]            2.65
4    KGGAVAADGRIEPGDMLLQVNEIN [DVL3]            4.49
5  HVSPPPSADPARGLPRSRDCRVDL [PDLIM4]            4.76

Exam item: Write down protein stability index measured for item RYEPLPPSLPAAGEQDCCGERVVI [KCNA3]
Marked response: 4.04

Exam item: Report measured protein stability index; entry is FKISGMNGIHVCMVFEVLGHHLLK [SRPK2]
Marked response: 3.01

Exam item: State its protein stability index: ESCEKNDPLSLLDDSKFPIEDTPL [PCDHGA10]
Marked response: 5.5
